- tested-system: hDAT (Homo sapiens, UniProt Q01959)
- Sequence (Q01959 whole entry): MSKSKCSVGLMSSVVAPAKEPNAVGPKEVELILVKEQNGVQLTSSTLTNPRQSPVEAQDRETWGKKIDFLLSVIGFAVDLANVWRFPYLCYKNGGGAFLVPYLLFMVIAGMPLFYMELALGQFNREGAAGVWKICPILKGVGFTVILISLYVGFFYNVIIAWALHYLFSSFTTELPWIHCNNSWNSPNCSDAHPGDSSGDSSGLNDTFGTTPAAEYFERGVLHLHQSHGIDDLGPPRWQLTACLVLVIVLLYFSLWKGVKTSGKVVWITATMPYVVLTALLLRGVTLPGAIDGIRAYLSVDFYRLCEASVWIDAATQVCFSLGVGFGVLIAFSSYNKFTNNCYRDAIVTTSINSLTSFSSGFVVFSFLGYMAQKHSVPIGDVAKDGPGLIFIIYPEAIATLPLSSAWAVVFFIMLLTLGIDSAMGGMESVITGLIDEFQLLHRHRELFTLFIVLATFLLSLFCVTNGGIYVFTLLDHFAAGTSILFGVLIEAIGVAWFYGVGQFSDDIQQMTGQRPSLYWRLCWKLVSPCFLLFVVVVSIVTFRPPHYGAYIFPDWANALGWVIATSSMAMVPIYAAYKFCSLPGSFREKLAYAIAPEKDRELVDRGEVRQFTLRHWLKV
- procedure-details: Inhibition of [125I]RTI-55 binding, HEK-hDAT membranes
- measurement-parameters: read-out: Inhibition of [125I]RTI-55 binding Ki ± sem, hDAT; HEK-hDAT membranes
Entries and their log10(Ki)
measured-metric: log10(Ki) (log10 of the value in nM)

> print(dat)
                                    compound  observed.measurement
 1  CCCC(NCC)C(=O)c1ccc(C)cc1 (stereo not drawn)                  2.09
 2    CC(N)Cc1ccc2ccoc2c1 (stereo not drawn)                  3.02
 3  CNC(C)Cc1ccc2c(c1)OCO2 (stereo not drawn) [MDMA, reference compound]                  4.49
 4  CCNC(C)Cc1ccc2ccoc2c1 (stereo not drawn)                  1.95
 5  CCCC(C(=O)c1ccc(F)cc1)N1CCCC1 (stereo not drawn)                  2.58
 6  CCCCC(NCC)C(=O)c1ccccc1 (stereo not drawn)                  2.23
 7  CCCC(C(=O)c1ccc2c(c1)OCO2)N(C)C (stereo not drawn)                  2.55
 8   CNC(C)Cc1ccc2ccoc2c1 (stereo not drawn)                  2.78
 9  CCCNC(CCC)C(=O)c1ccccc1 (stereo not drawn)                  2.59
10  CCCC(NC)C(=O)c1ccc(C)cc1 (stereo not drawn)                  3.16
11  CCNC(C)C(=O)c1ccc(Cl)cc1 (stereo not drawn)                  3.62
12  CCCC(NCC)C(=O)c1ccccc1 (stereo not drawn)                  2.26
13  CNC(C)C(=O)c1ccccc1 (stereo not drawn) [MCAT, methcathinone, reference compound]                  3.88
14  CCCC(NCC)C(=O)c1ccc2c(c1)OCO2 (stereo not drawn)                  2.01
15  CNC(C)C(=O)c1cccc(C)c1 (stereo not drawn)                  3.80
16   CNC(C)Cc1cc2ccccc2o1 (stereo not drawn)                  3.21
17  CCCC(C(=O)c1ccc(Cl)cc1)N1CCCC1 (stereo not drawn)                  1.79
18  CC(C(=O)c1ccc2c(c1)OCO2)N(C)C (stereo not drawn)                  3.62

----------
- tested-system: hNET (Homo sapiens, UniProt P23975)
- Sequence (P23975 whole entry): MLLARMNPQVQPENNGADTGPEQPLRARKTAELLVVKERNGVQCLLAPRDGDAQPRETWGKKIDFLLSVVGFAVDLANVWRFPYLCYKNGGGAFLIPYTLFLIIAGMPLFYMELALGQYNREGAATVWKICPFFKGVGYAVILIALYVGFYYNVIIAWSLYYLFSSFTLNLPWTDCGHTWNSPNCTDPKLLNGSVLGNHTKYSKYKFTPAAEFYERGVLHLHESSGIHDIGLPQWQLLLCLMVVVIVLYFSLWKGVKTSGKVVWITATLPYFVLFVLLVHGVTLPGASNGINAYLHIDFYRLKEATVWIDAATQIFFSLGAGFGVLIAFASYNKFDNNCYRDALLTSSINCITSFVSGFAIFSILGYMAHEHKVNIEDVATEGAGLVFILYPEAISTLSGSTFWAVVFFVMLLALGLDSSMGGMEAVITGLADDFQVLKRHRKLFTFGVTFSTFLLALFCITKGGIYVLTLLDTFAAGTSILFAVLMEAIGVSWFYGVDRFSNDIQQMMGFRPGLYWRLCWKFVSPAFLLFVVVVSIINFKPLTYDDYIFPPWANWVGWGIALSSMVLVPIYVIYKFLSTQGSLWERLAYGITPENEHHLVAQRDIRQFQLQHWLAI
- procedure-details: biochemical
- Type: binding
Entries and their Ki
measured-metric: Ki

> print(dat)
                                   molecule  observed.measurement
1  CCCCC(C(=O)c1ccc(F)cc1)N1CCCC1 (stereo not drawn) [4-F-α-PHP, 4’-fluoro-α–pyrrolidinohexanophenone]               1730 nM
2  CC(C(=O)c1ccc(Cl)cc1)N1CCCC1 (stereo not drawn) [4-Cl-α-PPP, 4’-chloro-α-pyrrolidinopropiophenone]               3580 nM
3  CCCC(Cc1ccccc1)N1CCCC1 (stereo not drawn) [Prolintane, 1-[1-(phenylmethyl)butyl]-pyrrolidine]                560 nM
4  CNC(C)Cc1ccc2c(c1)CCO2 (stereo not drawn) [5-MAPDB]            > 30000 nM
5  CCCCCCC(C(=O)c1ccccc1)N1CCCC1 (stereo not drawn) [PV9, 1-phenyl-2-(pyrrolidin-1-yl)octan-1-one]                468 nM
6  CCCCC(C(=O)c1ccc2c(c1)OCO2)N1CCCC1 (stereo not drawn) [3,4-MDPHP]                935 nM
7  CN[C@@H](C)Cc1ccccc1 [METH, methamphetamine, reference compound]               2510 nM
8  CNC(COC)C(=O)c1ccc(C)cc1 (stereo not drawn) [Mexedrone]            > 27600 nM
9  CCCCC(C(=O)c1ccc(C)cc1)N1CCCC1 (stereo not drawn) [4-Me-α-PHP, 4’-methyl-α–pyrrolidinohexanophenone]                750 nM
